Catalogue of molecules with associated growth
Test system: M14 melanoma
Assay: NCI-60 one-dose screen, 48 h (100 = growth as untreated, 0 = no growth, -100 = all killed)
Details: 10 µM unless noted
This is part of a sample that, as a whole, favours compounds with a hit. Of some 83,000 tested, about 20% had one in any assay. The source made the active and inactive calls. How the source made its calls: active means growth percent below 10; inactive means the rest.

Examples with answers:
{"MOLECULE": "FC(F)(F)c1cc2c(Cl)ncnc2n1CCN1CCCCC1", "TGT": "M14 melanoma", "growth": "24.1% (inactive)"}
{"MOLECULE": "CS(=O)(=O)c1ccc(-n2nc(C(=O)NCc3ccccc3)cc2-c2ccc(Cl)cc2)cc1", "TGT": "M14 melanoma", "growth": "93.9% (inactive)"}
{"MOLECULE": "O=C(Nc1nc2ccc([N+](=O)[O-])cc2s1)Nc1ccccc1F", "TGT": "M14 melanoma", "growth": "16.5% (inactive)"}
{"MOLECULE": "COc1ccc(Nc2ncnc3sc4c(c23)CCN(Cc2ccccc2)C4)cc1", "TGT": "M14 melanoma", "growth": "81.1% (inactive)"}
{"MOLECULE": "C=CCSc1nnc(-c2ccc(-c3nc4ccccc4[nH]3)cc2)o1", "TGT": "M14 melanoma", "growth": "73.5% (inactive)"}
{"MOLECULE": "Cc1ccc(C(=O)Nc2cccc(C(=O)NC(=S)Nc3ccc(S(N)(=O)=O)cc3)c2)cc1", "TGT": "M14 melanoma", "growth": "83.7% (inactive)"}
{"MOLECULE": "COc1ccccc1Nc1nnc(-c2c[nH]c3ccccc23)o1", "TGT": "M14 melanoma", "growth": "20.5% (inactive)"}
{"MOLECULE": "CN(C)c1nc(NCCNS(=O)(=O)c2ccc(C3=Nc4c(N)nc(N)nc4NC(c4ccc(Cl)cc4)C3)cc2)nc(N2CCOCC2)n1 (stereo not given)", "TGT": "M14 melanoma", "growth": "45.5% (inactive)"}

Entry COc1ccc(CCC2NCCc3c(Br)c4c(c(OC)c32)OCO4)cc1 (stereo not given) ; assay system M14 melanoma; growth recorded at -30.7% (active)

Entry CCOc1ccccc1[C@H]1C(C(=O)c2ccc(Cl)cc2)C2(N[C@@H]1c1ccccc1)C(=O)Nc1ccc(Br)cc12 (stereo not given in full) ; assay system M14 melanoma; growth recorded at -38% (active)
